assay remarks: Plasma protein binding of tritium labeled compound in rat plasma was determined
Format: ADME, cell-free
condition set: read-out: Protein binding

{"chem smiles": "Cc1c(NS(C)(=O)=O)cccc1N(Cc1ccc(Oc2ccc(F)c(OCC(=O)O)c2)cc1)Cc1ccc(F)cc1F", "fraction unbound": 0.001}

====

target system: Glucocorticoid receptor (Homo sapiens, UniProt P04150)
Sequence (P04150 whole entry): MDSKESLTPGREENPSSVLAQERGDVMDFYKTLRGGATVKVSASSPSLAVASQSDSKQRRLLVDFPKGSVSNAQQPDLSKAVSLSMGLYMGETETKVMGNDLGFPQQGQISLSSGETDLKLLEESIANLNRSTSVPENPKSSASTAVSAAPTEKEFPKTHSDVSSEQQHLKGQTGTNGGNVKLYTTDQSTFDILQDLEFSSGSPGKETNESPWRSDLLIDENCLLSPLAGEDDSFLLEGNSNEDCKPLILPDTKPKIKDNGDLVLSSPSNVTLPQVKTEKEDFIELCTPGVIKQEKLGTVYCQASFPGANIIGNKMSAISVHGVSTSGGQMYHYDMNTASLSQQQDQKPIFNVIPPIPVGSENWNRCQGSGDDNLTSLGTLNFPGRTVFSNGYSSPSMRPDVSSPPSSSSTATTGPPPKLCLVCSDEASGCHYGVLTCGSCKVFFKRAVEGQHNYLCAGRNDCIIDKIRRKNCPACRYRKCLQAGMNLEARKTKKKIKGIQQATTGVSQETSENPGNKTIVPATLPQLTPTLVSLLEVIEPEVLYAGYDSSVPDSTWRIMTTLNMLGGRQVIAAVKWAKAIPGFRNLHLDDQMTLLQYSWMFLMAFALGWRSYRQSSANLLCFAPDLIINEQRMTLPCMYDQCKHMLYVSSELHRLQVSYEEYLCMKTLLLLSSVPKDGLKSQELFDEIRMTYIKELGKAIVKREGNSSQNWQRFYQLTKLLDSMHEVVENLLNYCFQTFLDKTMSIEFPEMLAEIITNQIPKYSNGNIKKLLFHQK
assay remarks: Antagonistic activity against 5 nM Dexamethasone induced glucocorticoid receptor mediated alkaline phosphatase activity
Assay type: functional
pIC50: −log10 of the molar value.

{"chem smiles": "Cc1c(NS(C)(=O)=O)cccc1N(Cc1ccc(Oc2ccc(Br)c(OCC(=O)O)c2)cc1)Cc1ccc(F)cc1F", "pIC50": 6.48}
{"chem smiles": "Cc1c(NS(C)(=O)=O)cccc1N(Cc1ccc(Oc2ccc(F)c(OCC(=O)O)c2)cc1)Cc1ccc(F)cc1F", "pIC50": 6.36}
{"chem smiles": "CC#C[C@]1(O)CC[C@H]2[C@@H]3CCC4=CC(=O)CC[C@]4(Cc4ccc(C)cc4)C3=CC[C@@]21C", "pIC50": 7.37}
{"chem smiles": "Cc1c(NS(C)(=O)=O)cccc1N(Cc1ccc(Oc2ccc(Cl)c(OCC(=O)O)c2)cc1)Cc1ccc(F)cc1F", "pIC50": 6.30}

====

assay remarks: Compound level in liver in ob/ob mice after 13 days of 100 mpk oral dose of compound
Format: ADME
condition set: mouse, 100 mg/kg, read-out: Level
Property: concentration at 312 h; scope: individual compounds

{"chem smiles": "Cc1c(NS(C)(=O)=O)cccc1N(Cc1ccc(Oc2ccc(F)c(OCC(=O)O)c2)cc1)Cc1ccc(F)cc1F", "quantity unit": "ng/g", "concentration at 312 h": 157000}
{"chem smiles": "Cc1c(NS(C)(=O)=O)cccc1N(Cc1ccccc1)Cc1ccc(Oc2ccc(OCC(=O)O)cc2)cc1", "quantity unit": "ng/g", "concentration at 312 h": 207000}

====

assay remarks: Insulin levels in ob/ob mice after 13 days of oral dose at 10 mpk b.i.d.
Format: ADME
condition set: mouse, in vivo, 10 mg/kg, 312 h
quantity name: Level

{"chem smiles": "Cc1c(NS(C)(=O)=O)cccc1N(Cc1ccccc1)Cc1ccc(Oc2ccc(OCC(=O)O)cc2)cc1", "result": "20 ng/mL"}

====

assay remarks: Half life period of the compound in rat liver microsomes was determined
Format: ADME, Microsome

{"chem smiles": "Cc1c(NS(C)(=O)=O)cccc1N(Cc1ccccc1)Cc1ccc(Oc2ccc(OCC(=O)O)cc2)cc1", "relation": "=", "half-life / h": 4.6}
{"chem smiles": "CC#C[C@]1(O)CC[C@H]2[C@@H]3CCC4=CC(=O)CCC4=C3[C@@H](c3ccc(N(C)C)cc3)C[C@@]21C", "relation": "<", "half-life / h": 0.33}
{"chem smiles": "Cc1c(NS(C)(=O)=O)cccc1N(Cc1ccc(Oc2ccc(F)c(OCC(=O)O)c2)cc1)Cc1ccc(F)cc1F", "relation": "=", "half-life / h": 4.1}
{"chem smiles": "CC#C[C@]1(O)CC[C@H]2[C@@H]3CCC4=CC(=O)CC[C@]4(Cc4ccc(C)cc4)C3=CC[C@@]21C", "relation": "=", "half-life / h": 0.33}

====

assay remarks: Compound level in plasma in ob/ob mice after 13 days of 100 mpk oral dose of compound
Assay type: ADME
condition set: mouse, 100 mg/kg, read-out: Level
quantity name: concentration at 312 h (ng/mL)

{"chem smiles": "Cc1c(NS(C)(=O)=O)cccc1N(Cc1ccccc1)Cc1ccc(Oc2ccc(OCC(=O)O)cc2)cc1", "quantitative result": 1600}

====

assay remarks: Compound level in liver in SD rats after 7 hr of 5 mg/kg i.v. dose
Type: ADME, organism-based
Design: dose 5 mg/kg, route intravenous
condition set: Sprague-Dawley, rat, iv, read-out: Level

{"chem smiles": "Cc1c(NS(C)(=O)=O)cccc1N(Cc1ccc(Oc2ccc(F)c(OCC(=O)O)c2)cc1)Cc1ccc(F)cc1F", "concentration at 7 h (ng/g)": 40000}
{"chem smiles": "Cc1c(NS(C)(=O)=O)cccc1N(Cc1ccccc1)Cc1ccc(Oc2ccc(OCC(=O)O)cc2)cc1", "concentration at 7 h (ng/g)": 3800}

====

The compounds listed here are annotated with their half-life.
assay remarks: Half life period of the compound in rat hepatocytes was determined
Assay type: ADME, cell-based, Liver, Hepatocyte
quantity name: half-life (h)

{"chem smiles": "Cc1c(NS(C)(=O)=O)cccc1N(Cc1ccccc1)Cc1ccc(Oc2ccc(OCC(=O)O)cc2)cc1", "quantity name": "half-life", "relation": "=", "quantitative result": 9.9}
{"chem smiles": "CC#C[C@]1(O)CC[C@H]2[C@@H]3CCC4=CC(=O)CCC4=C3[C@@H](c3ccc(N(C)C)cc3)C[C@@]21C", "quantity name": "half-life", "relation": "<", "quantitative result": 0.1}
{"chem smiles": "CC#C[C@]1(O)CC[C@H]2[C@@H]3CCC4=CC(=O)CC[C@]4(Cc4ccc(C)cc4)C3=CC[C@@]21C", "quantity name": "half-life", "relation": "<", "quantitative result": 0.2}
{"chem smiles": "Cc1c(NS(C)(=O)=O)cccc1N(Cc1ccc(Oc2ccc(F)c(OCC(=O)O)c2)cc1)Cc1ccc(F)cc1F", "quantity name": "half-life", "relation": "=", "quantitative result": 6.5}

====

assay remarks: Half life period of the compound in human hepatocytes was determined
Type: ADME, cell-based, Liver, Hepatocyte

{"chem smiles": "Cc1c(NS(C)(=O)=O)cccc1N(Cc1ccccc1)Cc1ccc(Oc2ccc(OCC(=O)O)cc2)cc1", "half-life, h": 31.1}
{"chem smiles": "Cc1c(NS(C)(=O)=O)cccc1N(Cc1ccc(Oc2ccc(F)c(OCC(=O)O)c2)cc1)Cc1ccc(F)cc1F", "half-life, h": 9.1}

====

Reported IC50 values, Glucocorticoid receptor (Homo sapiens).
quantity name: IC50 (nM)

{"chem smiles": "CC#C[C@]1(O)CC[C@H]2[C@@H]3CCC4=CC(=O)CC[C@]4(Cc4ccc(C)cc4)C3=CC[C@@]21C", "target system": "Glucocorticoid receptor (Homo sapiens)", "quantitative result": 2.4}
{"chem smiles": "Cc1c(NS(C)(=O)=O)cccc1N(Cc1ccc(Oc2ccc(Br)c(OCC(=O)O)c2)cc1)Cc1ccc(F)cc1F", "target system": "Glucocorticoid receptor (Homo sapiens)", "quantitative result": 1.8}
{"chem smiles": "Cc1c(NS(C)(=O)=O)cccc1N(Cc1ccc(Oc2ccc(F)c(OCC(=O)O)c2)cc1)Cc1ccc(F)cc1F", "target system": "Glucocorticoid receptor (Homo sapiens)", "quantitative result": 4.8}
{"chem smiles": "Cc1c(NS(C)(=O)=O)cccc1N(Cc1ccc(Oc2ccc(Cl)c(OCC(=O)O)c2)cc1)Cc1ccc(F)cc1F", "target system": "Glucocorticoid receptor (Homo sapiens)", "quantitative result": 2.6}

====

Each entry below carries its recorded IC50.
target system: Glucocorticoid receptor (Rattus norvegicus)
Sequence (P06536 whole entry): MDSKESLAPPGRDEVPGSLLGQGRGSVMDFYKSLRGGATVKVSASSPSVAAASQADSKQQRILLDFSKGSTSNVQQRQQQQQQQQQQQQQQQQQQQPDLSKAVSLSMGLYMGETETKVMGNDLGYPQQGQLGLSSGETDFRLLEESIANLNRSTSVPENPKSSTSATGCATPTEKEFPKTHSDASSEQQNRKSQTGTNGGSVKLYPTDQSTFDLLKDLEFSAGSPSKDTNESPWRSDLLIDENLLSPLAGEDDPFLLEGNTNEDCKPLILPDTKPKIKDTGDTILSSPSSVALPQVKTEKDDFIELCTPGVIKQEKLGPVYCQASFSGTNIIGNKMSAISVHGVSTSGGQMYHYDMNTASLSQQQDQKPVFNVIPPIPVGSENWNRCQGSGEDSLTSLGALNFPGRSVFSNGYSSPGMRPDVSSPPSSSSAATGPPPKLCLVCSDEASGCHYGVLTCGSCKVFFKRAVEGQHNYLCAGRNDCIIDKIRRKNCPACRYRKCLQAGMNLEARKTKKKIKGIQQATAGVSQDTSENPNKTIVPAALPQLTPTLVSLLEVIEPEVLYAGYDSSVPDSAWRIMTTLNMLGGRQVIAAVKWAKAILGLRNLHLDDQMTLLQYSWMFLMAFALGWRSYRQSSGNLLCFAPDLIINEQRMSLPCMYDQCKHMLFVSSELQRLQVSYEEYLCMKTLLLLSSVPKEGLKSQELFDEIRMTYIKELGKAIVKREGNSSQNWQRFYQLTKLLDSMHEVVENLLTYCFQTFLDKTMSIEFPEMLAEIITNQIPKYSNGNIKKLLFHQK

{"chem smiles": "Cc1c(NS(C)(=O)=O)cccc1N(Cc1ccc(Oc2ccc(Cl)c(OCC(=O)O)c2)cc1)Cc1ccc(F)cc1F", "IC50, nM": 1.9}
{"chem smiles": "Cc1c(NS(C)(=O)=O)cccc1N(Cc1ccccc1)Cc1ccc(Oc2ccc(OCC(=O)O)cc2)cc1", "IC50, nM": 2.1}
{"chem smiles": "CC#C[C@]1(O)CC[C@H]2[C@@H]3CCC4=CC(=O)CC[C@]4(Cc4ccc(C)cc4)C3=CC[C@@]21C", "IC50, nM": 2.4}
{"chem smiles": "Cc1c(NS(C)(=O)=O)cccc1N(Cc1ccc(Oc2ccc(F)c(OCC(=O)O)c2)cc1)Cc1ccc(F)cc1F", "IC50, nM": 0.2}
